# ASSAY_EXPLANATION: Lipophilicity, CHI logD of compound at pH 2.6 by UPLC-TOF analysis
# Type: physicochemical
# CONDITION_CONTEXT: buffer
MEASURED_METRIC: chromatographic logD
Write the value as a bare number.

Req: Would you kindly share the measured chromatographic logD for CO[C@@]1(CN2CCN3CCOC[C@@H]3C2)/C(F)=C/C[C@H](C)[C@@H](C)S(=O)(=O)NC(=O)c2ccc3c(c2)N(C[C@@H]2CCO[C@H]21)C[C@@]1(CCCc2cc(Cl)ccc21)CO3 ?
Resp: 2.5

Req: Also CO[C@]1(CN2CCN3CCCC[C@@H]3C2)/C=C/C[C@H](C)[C@@H](C)S(=O)(=O)NC(=O)c2ccc3c(c2)N(C[C@@H]2CC[C@H]21)C[C@@]1(CCCc2cc(Cl)ccc21)CO3 [MURIZATOCLAX] ?
Resp: 2.9

Req: Also CO[C@]1(CN2CCN3CCOC[C@@H]3C2)/C(F)=C/C[C@H](C)[C@@H](C)S(=O)(=O)NC(=O)c2ccc3c(c2)N(C[C@@H]2CCO[C@H]21)C[C@@]1(CCCc2cc(Cl)ccc21)CO3 ?
Resp: 2.8

Req: Also COCCN(CCOC)C[C@]1(OC)/C(F)=C/C[C@H](C)[C@@H](C)S(=O)(=O)NC(=O)c2ccc3c(c2)N(C[C@@H]2CCO[C@H]21)C[C@@]1(CCCc2cc(Cl)ccc21)CO3 ?
Resp: 3
